System: Alternaria solani
assay.overview: Fungicidal activity against Alternaria solani grown on compound supplemented artificial media assessed as control of disease or pathogen at 20 ppm measured after 5 to 14 days by artificial media assay
Assay type: functional
measurement.label: Activity (%)

# molecule, unit.tag, reported
rows = [
    ("COC(=O)n1cc(-c2ocnc2Cl)c2ccccc21", "%", 0),
    ("O=C(n1cc(-c2ocnc2Cl)c2ccccc21)C(Cl)(Cl)Cl", "%", 99),
    ("CCOC(=O)Cn1cc(-c2ocnc2Cl)c2ccccc21", "%", 0),
    ("Clc1ncoc1-c1cn(CC2CO2)c2ccccc12 (configuration not stated)", "%", 0),
    ("CC(Cl)C(=O)n1cc(-c2ocnc2Cl)c2ccccc21 (configuration not stated)", "%", 55),
    ("O=C(CCl)n1cc(-c2ocnc2Cl)c2ccccc21", "%", 55),
    ("COCC(=O)n1cc(-c2ocnc2Br)c2ccccc21", "%", 99),
    ("COCC(=O)n1cc(-c2ocnc2Cl)c2ccccc21", "%", 99),
    ("CCC(=O)n1cc(-c2ocnc2Cl)c2ccccc21", "%", 0),
    ("Fc1ccc(Cn2cc(-c3ocnc3Cl)c3ccccc32)c(F)c1", "%", 0),
    ("Brc1ncoc1-c1cn(CC2CC2)c2ccccc12", "%", 0),
    ("O=C(CCl)n1cc(-c2ocnc2Br)c2ccccc21", "%", 99),
]

====

System: Pythium dissimile
assay.overview: Fungicidal activity against Pythium dissimile grown on compound supplemented artificial media assessed as control of disease or pathogen at 2 ppm measured after 5 to 14 days by artificial media assay
Type: functional
Activity listing for selected molecules.

# molecule, Activity
rows = [
    ("O=C(n1cc(-c2ocnc2Cl)c2ccccc21)C(Cl)(Cl)Cl", "0%"),
    ("CC(=O)n1cc(-c2ocnc2Br)c2ccccc21", "0%"),
    ("O=C(CCl)n1cc(-c2ocnc2Br)c2ccccc21", "0%"),
    ("C=CCn1cc(-c2ocnc2Br)c2ccccc21", "0%"),
    ("Clc1ncoc1-c1cn(CC2CO2)c2ccccc12 (stereo not drawn)", "0%"),
    ("Cn1cc(-c2ocnc2Cl)c2ccccc21", "0%"),
    ("CCn1cc(-c2ocnc2Br)c2ccccc21", "49%"),
    ("CC(=O)n1cc(-c2ocnc2Cl)c2ccccc21", "0%"),
]

====

Tested on: Botrytis cinerea
assay.overview: Fungicidal activity against Botryotinia fuckeliana grown on compound supplemented artificial media assessed as control of disease or pathogen at 2 ppm measured after 5 to 14 days by artificial media assay
Type: functional

# compound, system.name, Activity
rows = [
    ("Clc1ncoc1-c1c[nH]c2ccccc12", "Botrytis cinerea", "0%"),
    ("CCOC(=O)Cn1cc(-c2ocnc2Cl)c2ccccc21", "Botrytis cinerea", "0%"),
    ("O=C(n1cc(-c2ocnc2Cl)c2ccccc21)C(Cl)(Cl)Cl", "Botrytis cinerea", "0%"),
    ("Cn1cc(-c2ocnc2Br)c2ccccc21", "Botrytis cinerea", "0%"),
    ("CC(=O)n1cc(-c2ocnc2Cl)c2ccccc21", "Botrytis cinerea", "0%"),
    ("Fc1ccc(Cn2cc(-c3ocnc3Cl)c3ccccc32)c(F)c1", "Botrytis cinerea", "0%"),
    ("CC(=O)n1cc(-c2ocnc2Br)c2ccccc21", "Botrytis cinerea", "0%"),
    ("O=C(C(Cl)Cl)n1cc(-c2ocnc2Br)c2ccccc21", "Botrytis cinerea", "0%"),
    ("CC(Cl)C(=O)n1cc(-c2ocnc2Cl)c2ccccc21 (centres undefined)", "Botrytis cinerea", "0%"),
    ("Clc1ncoc1-c1cn(CC2CO2)c2ccccc12 (centres undefined)", "Botrytis cinerea", "0%"),
    ("c1ccc2c(-c3cnco3)c[nH]c2c1", "Botrytis cinerea", "0%"),
    ("ClC(Cl)=CCn1cc(-c2ocnc2Br)c2ccccc21", "Botrytis cinerea", "0%"),
    ("CCC(=O)n1cc(-c2ocnc2Cl)c2ccccc21", "Botrytis cinerea", "0%"),
    ("C=CCn1cc(-c2ocnc2Cl)c2ccccc21", "Botrytis cinerea", "0%"),
    ("O=C(C(Cl)Cl)n1cc(-c2ocnc2Cl)c2ccccc21", "Botrytis cinerea", "0%"),
    ("CCOC(=O)C(=O)n1cc(-c2ocnc2Cl)c2ccccc21", "Botrytis cinerea", "0%"),
    ("C=CCn1cc(-c2ocnc2Br)c2ccccc21", "Botrytis cinerea", "0%"),
    ("Brc1ncoc1-c1c[nH]c2ccccc12", "Botrytis cinerea", "0%"),
    ("COCC(=O)n1cc(-c2ocnc2Cl)c2ccccc21", "Botrytis cinerea", "0%"),
    ("O=C(CCl)n1cc(-c2ocnc2Br)c2ccccc21", "Botrytis cinerea", "0%"),
    ("Clc1ncoc1-c1cn(CC2CC2)c2ccccc12", "Botrytis cinerea", "0%"),
    ("CCS(=O)(=O)n1cc(-c2ocnc2Cl)c2ccccc21", "Botrytis cinerea", "0%"),
    ("CCS(=O)(=O)n1cc(-c2ocnc2Br)c2ccccc21", "Botrytis cinerea", "0%"),
    ("O=C(CCl)n1cc(-c2ocnc2Cl)c2ccccc21", "Botrytis cinerea", "0%"),
]

====

Test system: Alternaria solani
assay.overview: Fungicidal activity against Alternaria solani grown on compound supplemented artificial media assessed as control of disease or pathogen at 20 ppm measured after 5 to 14 days by artificial media assay
Assay type: functional

# molecule, unit.tag, Activity
records = [
    ("CC(=O)n1cc(-c2ocnc2Cl)c2ccccc21", "%", 0),
    ("CCOC(=O)C(=O)n1cc(-c2ocnc2Cl)c2ccccc21", "%", 99),
    ("CCS(=O)(=O)n1cc(-c2ocnc2Br)c2ccccc21", "%", 0),
    ("C=CCn1cc(-c2ocnc2Cl)c2ccccc21", "%", 0),
    ("C=CCn1cc(-c2ocnc2Br)c2ccccc21", "%", 0),
    ("O=C(C(Cl)Cl)n1cc(-c2ocnc2Br)c2ccccc21", "%", 99),
    ("Clc1ncoc1-c1cn(CC2CC2)c2ccccc12", "%", 0),
    ("CC(=O)n1cc(-c2ocnc2Br)c2ccccc21", "%", 0),
    ("c1ccc2c(-c3cnco3)c[nH]c2c1", "%", 77),
    ("O=C(C(Cl)Cl)n1cc(-c2ocnc2Cl)c2ccccc21", "%", 99),
    ("COC(=O)n1cc(-c2ocnc2Br)c2ccccc21", "%", 0),
    ("ClC(Cl)=CCn1cc(-c2ocnc2Br)c2ccccc21", "%", 0),
    ("Clc1ncoc1-c1c[nH]c2ccccc12 [Streptochlorin]", "%", 99),
    ("CCn1cc(-c2ocnc2Br)c2ccccc21", "%", 55),
    ("CCn1cc(-c2ocnc2Cl)c2ccccc21", "%", 0),
    ("Brc1ncoc1-c1c[nH]c2ccccc12", "%", 99),
    ("CC(Cl)C(=O)n1cc(-c2ocnc2Br)c2ccccc21 (stereo unspecified)", "%", 55),
    ("CCS(=O)(=O)n1cc(-c2ocnc2Cl)c2ccccc21", "%", 0),
    ("Cn1cc(-c2ocnc2Cl)c2ccccc21", "%", 0),
    ("CCC(=O)n1cc(-c2ocnc2Br)c2ccccc21", "%", 0),
    ("Cn1cc(-c2ocnc2Br)c2ccccc21", "%", 0),
]

====

Tested on: Alternaria solani
assay.overview: Fungicidal activity against Alternaria solani grown on compound supplemented artificial media assessed as control of disease or pathogen at 2 ppm measured after 5 to 14 days by artificial media assay
Format: functional
measurement.label: Activity (%)

# compound, measurement.label, reported
data = [
    ("O=C(C(Cl)Cl)n1cc(-c2ocnc2Cl)c2ccccc21", "Activity", 0),
    ("C=CCn1cc(-c2ocnc2Cl)c2ccccc21", "Activity", 0),
    ("O=C(CCl)n1cc(-c2ocnc2Br)c2ccccc21", "Activity", 27),
    ("CC(=O)n1cc(-c2ocnc2Br)c2ccccc21", "Activity", 0),
    ("Fc1ccc(Cn2cc(-c3ocnc3Cl)c3ccccc32)c(F)c1", "Activity", 0),
    ("CCC(=O)n1cc(-c2ocnc2Br)c2ccccc21", "Activity", 0),
    ("Clc1ncoc1-c1cn(CC2CO2)c2ccccc12 (stereo not drawn)", "Activity", 0),
    ("Clc1ncoc1-c1c[nH]c2ccccc12 [Streptochlorin]", "Activity", 99),
    ("Brc1ncoc1-c1cn(CC2CC2)c2ccccc12", "Activity", 0),
    ("CC(Cl)C(=O)n1cc(-c2ocnc2Cl)c2ccccc21 (stereo not drawn)", "Activity", 0),
    ("CCn1cc(-c2ocnc2Cl)c2ccccc21", "Activity", 0),
    ("Cn1cc(-c2ocnc2Cl)c2ccccc21", "Activity", 0),
    ("Brc1ncoc1-c1c[nH]c2ccccc12", "Activity", 0),
]
